# test_name: NCI Yeast Anticancer Drug Screen. Data for the cln2 rad14 strain (AID 165);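 note: 0% = growth equal to vehicle treated cultures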
# run_parameters: S. cerevisiae cln2 rad14 strain, at 50.0 µM
The panel holds about 79,000 compounds, 15% with a hit somewhere; the sample as a whole holds those more often. Calls of active or inactive are those of the source. Cut-off read from the data, not from the text of the source: active = growth inhibition above about 70%; inactive = the rest. Where a SMILES comes first, the peptide text is derived from it.
Possible outcomes: 1 (active), -1 (inactive)

compound | class_name
CCCC(=O)NC(Nc1cc(C)ccn1)(C(=O)OCC)C(F)(F)F (configuration not stated) | -1
CC(C(=O)c1ccccc1)N(C)c1ccccc1 (configuration not stated) | -1
O=C(CCl)N1CCC(CC2(c3cc4ccccc4[nH]3)OCCO2)CC1 | -1
COc1ccc2c(c1)OC(OC)(c1ccc(OC)c(OC)c1)C(O)(OC)C2=O (configuration not stated) | -1
Cc1nn(C)c2ncnc(N)c12 | -1
CCOC(=O)c1cc2c(nc1N)C(=O)CCC2 | -1
O=c1onc2n1-c1cc(Cl)ccc1C(=S)N1CSCC21 (configuration not stated) | -1
O=[N+]([O-])c1ccc2c(c1)C(=Nc1ccc(Cl)cc1)c1ccccc1-2 | -1
CC(=O)Nc1nc(Cl)c2ncn(C3CCCO3)c2n1 (configuration not stated) | -1
CC(C)CNC(=S)N/N=C/C=C/c1ccc(C(C)C)cc1 | -1
CC(=O)Nc1cc2c(cc1Cl)-c1ccc(Br)cc1C2 | -1
CCCc1c[nH]c(-c2ccc(-c3cc(CCC)c(C=O)[nH]3)s2)c1 | -1
N/C(=N\OC(=O)Nc1cccc(Cl)c1)C(Cl)(Cl)Cl | 1
COc1cc2c(cc1O)C(C)C(c1ccccc1)O2 (configuration not stated) | -1
OC(CNc1ncccn1)(c1ccccc1)c1ccccc1 | -1
CCCOc1cncc(C)n1 | -1
O=C(O)c1ccc(F)c([N+](=O)[O-])c1 | -1
NCCCCC(NC(=O)C(N)Cc1cnc[nH]1)C(=O)O (stereo not drawn) (H-His-Lys-OH; configuration not given here) | -1
C/C(=N\N=C(/C)c1ccc(-c2ccccc2)cc1)c1ccc(-c2ccccc2)cc1 | -1
COc1ccc(CCNCCCC2c3ccccc3-c3ccccc32)cc1OC | -1
O=C1CCCc2ccc([N+](=O)[O-])c(O)c21 | -1
COC(=O)C(Br)C(Br)c1ccc(OC)c(OC)c1 (configuration not stated) | -1
C(=C\c1cc(-c2ccc3ccccc3n2)nc2ccc3ccccc3c12)/c1ccc2ccccc2n1 | -1
O=c1c(Br)c(-c2ccccc2)[nH]c2ccccc12 | -1
OC1CCOc2ccccc21 (configuration not stated) | -1
COc1cc(C(=O)O)c(C(=O)O)cc1OC | -1
Cc1ccncc1.[O]=[Ge].[O]=[Ge].[O]=[Ge].[O]=[Ge].[O]=[Ge].[O]=[Ge][OH].[O]=[Ge][OH] | -1
CCCc1nc2c([nH]1)c(=O)n(C)c(=O)n2C | -1
C#CCNC(=O)CCC(N)C(=O)O (configuration not stated) | -1
O=[N+]([O-])c1cc(O)ccc1O | -1
Cc1cccc(-c2cc(=O)c3c(C)cc(C)nc3[nH]2)c1 | -1
CCC(OC(=O)Nc1ccc(S(=O)(=O)NC2CCCCC2)cc1)c1ccco1 (configuration not stated) | -1
S=C(S)N1CCN(c2cccc(Cl)c2)CC1 | -1
C[C@H](CCC(=O)O[C@@H]1CC[C@@]2(C)C(CC[C@H]3[C@@H]4CC[C@H]([C@H](C)CCc5nc6ccccc6[nH]5)[C@@]4(C)CC[C@@H]32)C1)[C@H]1CC[C@H]2[C@@H]3CCC4C[C@H](O)CC[C@]4(C)[C@H]3CC[C@]12C (some centres not stated) | -1
COC(=O)N1c2ccccc2C23CCN4CCCC5(CCC12C(C(=O)O)C5)C43 (configuration not stated) | -1
O=c1c2cc(-c3ccccc3)sc2nc2n1N=C(c1ccccc1)CS2 | -1
COc1ccc2c(c1)CC/C2=N/O | -1
S=C(Nc1ccc(I)cc1)SCc1ccc2c(c1)OCO2 | -1
CCCCCCCCCCCCC(O)C(=O)O (configuration not stated) | -1
NCC(=O)NC1(C(=O)NCC(=O)O)CCCC1 | -1
O=c1oc2ccccc2c(N2CCCCC2)c1Cl | -1
Cc1c([O-])[n+]2cccc3ccn(c1=O)c32 | -1
Oc1ccc(C2=NNC(c3ccc(O)cc3)=NN2)cc1 | -1
CC12CCC(CC1)C(C)(C)N=C(N)S2 | -1
Cc1ccc(NC(=S)NC(Cc2ccccc2)c2ccccc2)cc1 (configuration not stated) | 1
Cc1cc(NC(=S)Nc2ccccc2)c(NC(=S)Nc2ccccc2)cc1C | -1
O=[N+]([O-])c1ccc(Br)cc1 | -1

Values from PubChem BioAssay (NCI)
